GI50: recorded values
- Test system: A549
- experiment.summary: NCI tumour cell line growth inhibition, 48 h
Calls of active or inactive are those of the source. No stated cut-off is given here; in the data, active = GI50 up to about 1.1 µM and inactive = higher.

Some solved cases for reference:
O=C1OC(c2ccccc2)=N/C1=C\c1ccc(N(CCCl)CCCl)cc1: > 100 µM (inactive)
N#CCCN(CCC#N)c1ccc(C(=N/c2ccc(F)cc2)/N=N/c2ccc(Cl)cc2)cc1: > 100 µM (inactive)
COc1ccc(OCC(=N/NC(=O)c2ccncc2)/N=C/c2ccncc2)cc1: > 100 µM (inactive)
CC(CCCOC(c1ccccc1)(c1ccccc1)c1ccccc1)OC(=O)Nc1cc([N+](=O)[O-])cc([N+](=O)[O-])c1 (stereo not drawn): 31.6 µM (inactive)
CC(=O)Oc1c(-c2ccccc2)oc2ccccc12: 1.51 µM (inactive)

Notebook: "CC(=O)Oc1ccc(-c2nnc(-c3ccc(OC(C)=O)cc3)nn2)cc1" , GI50 read as > 100 µM (inactive)

Notebook: CCOC(=O)c1c(-c2ccc(Cl)cc2)c(C#N)c(=S)n(C2OC(CO)C(O)C(O)C2O)c1-c1ccccc1 (stereo not drawn) , GI50 read as 34.2 µM (inactive)

Notebook: CC12CC(OC(=O)[C@]1(C)O)[C@@H]([C@]1(O)CC[C@H]3[C@@H]4C[C@H]5O[C@]56[C@@H](O)C=CC(=O)[C@]6(C)[C@H]4CC[C@@]31C)C2 (stereo partly drawn) , GI50 read as 30.5 µM (inactive)

###

- Test system: Hs-578T
- experiment.summary: NCI tumour cell line growth inhibition, 48 h
The source made the active and inactive calls. Cut-off read from the data, not from the text of the source: active = GI50 up to about 1.1 µM and inactive = higher.
metric.name: GI50

COC(=O)C1=C(C)NC(C)=C(C(=O)OC)C1c1ccc(/[N+]([O-])=C/c2ccccc2)cc1: 41.3 µM (inactive)
CCCC(=O)NC(Nc1ccc(S(=O)(=O)Nc2nc(C)cc(C)n2)cc1)(C(F)(F)F)C(F)(F)F: > 100 µM (inactive)
Clc1ccc(C(c2ccc(Cl)cc2)c2cncnc2)cc1: 18.3 µM (inactive)
CC(C)(C)OC(=O)N1C(=O)C2CCCC21 (centres undefined): > 100 µM (inactive)
CC1=NN(C(=O)CC(=O)Nc2ccc(C)cc2)C(=O)C1/N=N/c1ccc(C(=O)O)cc1 (centres undefined): 85.7 µM (inactive)
COc1cccc(OC)c1C1ON=C(c2ccccc2)N1C12CC3CC(CC(C3)C1)C2 (centres undefined): 57.7 µM (inactive)

Notebook: CNC(=O)C1CCC(=O)N1CN(C(C)=O)c1ccccc1 (centres undefined) , GI50 read as > 100 µM (inactive)

Notebook: "CCCCN(C)C(=O)C1=C(C)NC(C)=C(C(=O)N(C)CCCC)C1" , GI50 read as > 100 µM (inactive)

Notebook: "O=C1C=CC(=O)c2c1ccc1c3ccccc3n(CCCCCn3c4ccccc4c4ccc5c(c43)C(=O)C=CC5=O)c21" , GI50 read as 21.2 µM (inactive)

###

GI50: recorded values
- System: OVCAR-8
- experiment.summary: NCI tumour cell line growth inhibition, 48 h
Calls of active or inactive are those of the source. Cut-off read from the data, not from the text of the source: active = GI50 up to about 1.1 µM and inactive = higher.

Some solved cases for reference:
N=c1sc(N2CCOCC2)nn1CC(=O)c1ccccc1: > 100 µM (inactive)
COC(=O)C1CC(C=[N+](C)C)=C(SC)N1 (stereo unspecified): > 100 µM (inactive)
Cc1cccc(C)c1/N=N/c1ccc(O)c(CN(C)C)c1: > 100 µM (inactive)
CCSC1=N/C(=C\c2ccccc2O)C(Nc2ccc(C)cc2)=N1: 80.4 µM (inactive)
CCOC(=O)C(=O)NNc1nc2c(s1)C(=O)c1ccccc1C2=O: 1.97 µM (inactive)

Notebook: "Cc1nc(-c2ccccc2)c(-c2ccccc2)s1" , GI50 read as 27.1 µM (inactive)

###

- Test system: SW-620
- experiment.summary: NCI tumour cell line growth inhibition, 48 h
Calls of active or inactive are those of the source. Cut-off read from the data, not from the text of the source: active = GI50 up to about 1.1 µM and inactive = higher.
GI50: recorded values

Some solved cases for reference:
Cc1ccc(S(=O)(=O)C2=C([Si](C)(C)C)C3CC2[C@@H]2C4C=CC(CC4)[C@H]32)cc1 (some centres undefined): > 100 µM (inactive)
CN1C(=O)N(C)C(N2CCCC2)c2c1nc1ccccn1c2=O (centres undefined): 60.5 µM (inactive)
NS(=O)(=O)C1CCCCC1C(=O)NNC(=O)C(=O)Nc1nnc(S)[nH]1 (centres undefined): > 100 µM (inactive)
COc1ccc2c(c1)OCC1(O)Cc3ccccc3OC21 (centres undefined): > 100 µM (inactive)
CC1NS(=O)(=O)N(C)C1=O (centres undefined): > 100 µM (inactive)

Notebook: "O=C1C2=C(CC3=C(C2)CS(=O)(=O)C3)C(=O)C2=C1CC1=C(C2)CS(=O)(=O)C1" , GI50 read as 18 µM (inactive)

Notebook: "COc1ccccc1/C=C1\Sc2scc(-c3ccc(O)c(O)c3)[n+]2C1=O" , GI50 read as 15.9 µM (inactive)

Notebook: "Cn1c(O)c(C(=O)NC2CCCCC2)c(=O)n(C)c1=S" , GI50 read as 5.79 µM (inactive)

Notebook: "COc1cc(Oc2c(C)c(Cl)c(OC)c(Cl)c2OC)c2c(c1Cl)COC2=O" , GI50 read as 52 µM (inactive)

Notebook: "Oc1c(/N=N\c2ccccc2)c2cccc3ccc4cccc1c4c32" , GI50 read as > 100 µM (inactive)

Notebook: "COc1cc(C)c(/C=C/C(=O)N2C(=O)OC[C@@H]2c2ccccc2)c(C)c1" , GI50 read as > 100 µM (inactive)

Notebook: "COC(=O)C(=O)Cc1nc2ccccc2s1" , GI50 read as > 100 µM (inactive)

Notebook: "O=C(Cn1ccnc1[N+](=O)[O-])c1ccc(F)cc1" , GI50 read as > 100 µM (inactive)

Notebook: "CCCCN(C)C(=O)C1=C(C)NC(C)=C(C(=O)N(C)CCCC)C1" , GI50 read as > 100 µM (inactive)

###

- System: SF-539
- experiment.summary: NCI tumour cell line growth inhibition, 48 h
Activity calls are given as the source filed them. Rule as the data show it: active = GI50 up to about 1.1 µM and inactive = higher.
GI50: recorded values

CC1=C(/C=C/C(C)=C/C=C/C(C)=C/C(=O)O)C(C)(C)CCC1: 48.6 µM (inactive)
Nc1nc(-c2ccccc2)c(Cl)c(-c2cc(Cl)ccc2O)n1: 25.1 µM (inactive)
O=C1N[C@@H]2C(=C[C@H](O)[C@@H](O)[C@H]2O)c2cc3c(c(O)c21)OCO3: 0.045 µM (active)
CNNC1=NS(=O)(=O)c2cc(C(=O)OC)c(Cl)cc2S1: > 10 µM (inactive)

Kindly review the next compound as well.
Notebook: N#CCN(CC#N)C1CC=CCC1N(CC#N)CC#N (stereo not given) , GI50 read as > 100 µM (inactive)

###

GI50: recorded values
- System: OVCAR-5
- experiment.summary: NCI tumour cell line growth inhibition, 48 h
The source made the active and inactive calls. No stated cut-off is given here; in the data, active = GI50 up to about 1.1 µM and inactive = higher.

Some solved cases for reference:
CCN(CC)Cc1nc2sc3c(c2c(=O)n1-c1ccccc1)CCCC3: 19.7 µM (inactive)
CC1CN=C(N(Cc2ccc(F)cc2)C(=O)Nc2ccc(Cl)cc2)S1 (stereo not given): > 100 µM (inactive)
Clc1ccc(-c2nnc(-c3cccc4ccccc34)o2)cc1Cl: > 100 µM (inactive)
C=CCn1c(=O)c(Br)nn(CCOCP(=O)(OCC)OCC)c1=O: > 100 µM (inactive)
CC(=O)O[C@@H]1[C@@H](O)C2=C3[C@]4(C)[C@@H]1C(C)(C)C(=O)C[C@@H]4[C@]3(O)[C@H](OC(C)=O)[C@@]1(C[C@@H]1C)C2=O: 23.7 µM (inactive)

Notebook: "CCc1n[nH]c(=O)n1CCO" , GI50 read as > 100 µM (inactive)

Notebook: FC(F)(F)C12C34C=CC5(CCC6(C=CC1(CC3)O6)C52C(F)(F)F)O4 (stereo not given) , GI50 read as > 100 µM (inactive)

Notebook: CCN(CC)C1Oc2cc3c(cc2C(c2cc(OC)c(OC)c(OC)c2)C1C)OCO3 (stereo not given) , GI50 read as 2 µM (inactive)

Notebook: "O=C1CCC(c2ccc(Cl)cc2)=NN1c1nsc2ccccc12" , GI50 read as 51.2 µM (inactive)

Notebook: "O=C(c1ccc(Cl)cc1)N(Cc1cccnc1)C(=S)N(Cc1cccnc1)C(=O)c1ccc(Cl)cc1" , GI50 read as 36.7 µM (inactive)

###

- System: SF-268
- experiment.summary: NCI tumour cell line growth inhibition, 48 h
The source made the active and inactive calls. Rule as the data show it: active = GI50 up to about 1.1 µM and inactive = higher.
metric.name: GI50

CCC/N=C(/NC(=O)c1ccc(Cl)cc1)SC: 88.9 µM (inactive)
OC(c1cc(-c2ccc(Cl)cc2)nc2ccccc12)C1CCCCN1 (centres undefined): 2.02 µM (inactive)
CC(C)NC(=O)OCc1c2c(n(C)c1COC(=O)NC(C)C)-c1ccccc1CC2: 10.2 µM (inactive)
CN(C)[C@@H]1C(O)=C(C(=O)NCN2CCN(C(=N)NC(=N)N)CC2)C(=O)[C@@]2(O)C(O)=C3C(=O)c4c(O)cccc4[C@@](C)(O)[C@H]3C[C@@H]12: 0.518 µM (active)
COC(C(=O)C(O)C(C)O)C1CC2C=C3C=C(OC4CC(OC5CC(O)C(OC)C(C)O5)C(OC(C)=O)C(C)O4)C(C)C(O)=C3C(O)=C2C(=O)C1OC1CC(OC2CC(OC3CC(C)(O)C(OC(=O)C(C)C)C(C)O3)C(O)C(C)O2)C(O)C(C)O1 (centres undefined): < 0.01 µM (active)

Notebook: "Cc1ccsc1/C=N/Nc1ccccn1" , GI50 read as > 100 µM (inactive)

Notebook: CC(=O)N1C(NN(C)C)CCN1c1ccccc1 (centres undefined) , GI50 read as > 10 µM (inactive)

Notebook: "COc1cccc(OC)c1C(=O)OCc1ccccc1" , GI50 read as > 100 µM (inactive)

Notebook: "Cc1ccc2nc(CN3CCCCC3)cc(=O)n2c1" , GI50 read as > 100 µM (inactive)

Reference for the values: ChEMBL document CHEMBL1201862
